B1: HDV Ribozyme (parent)
chain: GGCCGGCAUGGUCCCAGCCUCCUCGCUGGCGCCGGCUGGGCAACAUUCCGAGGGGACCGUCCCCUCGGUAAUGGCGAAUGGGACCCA

Variants of: B1
Assay: self-cleavage, relative activity (ratio to wild type); higher = more cleavage; co-transcriptional
QUANTITY KIND: self-cleavage
No unit in the answer, only the number.

Sample records with self-cleavage:
Q: Please report the recorded self-cleavage for C14G U79A .
A: 0.266

Q: Please give the measured self-cleavage for this variant: G10A C26U
A: 0.874

Q: // lookup self-cleavage for G31C C41A
A: 0.305

Q: self-cleavage lookup needed for U23G A78C , thanks.
A: 0.106

Q: Item G1C C66U has what recorded self-cleavage?
A: 0.208

Further cases:
Q: For C19U A78G , what is its reported self-cleavage?
A: 0.0405

Q: What self-cleavage value was documented for this variant, C26A G67A ?
A: 1.01
